The reported numbers originate from patent US20230201290A1.

As shown below, each of these sequences has a reported CC50: 50% cytotoxic concentration of compound without virus added value.
- Test system: Vero 76 cells
- TEST SETTINGS: run alongside SARS-CoV-2 test

                           polymer_sequence   study_target       result
0  CATTGTAGATGTCAAAAGCC (phosphorothioate backbone, further chemistry not given here) [FS-2a (13539-13558)]  Vero 76 cells  >1000 µg/mL
1  TAAAGTTCGTTTAGAGAACAG (phosphorothioate backbone, further chemistry not given here) [TRS2 (56-76)]  Vero 76 cells  >1000 µg/mL

[ask] State its CC50: 50% cytotoxic concentration of compound without virus added for this sequence: GGTAGGTAAAAACCTAATAT [5TERM (1-20)] (phosphorothioate backbone, further chemistry not given here)
[reply] >1000 µg/mL
